B1: OR4K15 (parent)
chain: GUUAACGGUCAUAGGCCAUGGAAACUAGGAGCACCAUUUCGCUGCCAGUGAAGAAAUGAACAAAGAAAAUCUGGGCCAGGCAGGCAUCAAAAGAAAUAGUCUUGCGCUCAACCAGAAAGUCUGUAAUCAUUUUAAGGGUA

Variants of: B1
Assay Protocol: self-cleavage, relative activity (ratio to wild type); higher = more cleavage; in vitro, sequencing; the parent is a self-cleaving ribozyme
Here the recorded self-cleavage is given for each entry.

Mutation Annotation	self-cleavage
A24U U132C	2.18
U124C U132C	1.13
U19C A66U	0.38
A66G G83U	0.61
A30G A117C	0.61
U39A U132C	1.97
A5G A68G	0.89
A116G U124C	0.36
G106A U124C	0.01
A55U U139C	0.56
G44A U124C	0.45
A55G A111G	0.03
G20U U39A	1.57
C34A A89U	1.63
A69G U122G	1.83

All values here come from the RNAGym collection of RNA variant scans (doi:10.7554/elife.90254).
